measured-on: HLA-A*0206 (Homo sapiens, UniProt P04439, D140Y/D185E/D98H/E176V/E277Q/F33Y/G131W/G231S/I119V/I121R/I166T/I218V/L300P/L318F/N151K/N90K/P208A/P217A/Q86G/Q94H/R138H/R169H/T345S)
method: HLA class I binding assay, purified HLA, inhibition of 125I-labelled probe peptide
experimental-parameters: A*[…], A2 supermotif cross-reactive binding data
# maps each entry to its IC50
Just the number please, in nM, no unit attached.

Guide cases for IC50, answers given:
>>> numeric_value("CC(C)C[C@H](NC(=O)[C@H](CO)NC(=O)[C@H](C)NC(=O)[C@H](C)NC(=O)[C@H](CCCNC(=N)N)NC(=O)[C@H](C)NC(=O)[C@H](CC(C)C)NC(=O)[C@@H](N)CC(C)C)C(=O)N[C@@H](CO)C(=O)N[C@H](C(=O)O)C(C)C [Peptide 63.0031]")
378
>>> numeric_value("CC[C@H](C)[C@H](NC(=O)[C@H](Cc1c[nH]c2ccccc12)NC(=O)[C@@H](NC(=O)[C@@H](NC(=O)[C@H](CO)NC(=O)[C@H](CC(C)C)NC(=O)[C@@H](NC(=O)[C@H](CC(C)C)NC(=O)[C@H](Cc1ccccc1)NC(=O)[C@@H](NC(=O)[C@@H](N)C(C)C)C(C)C)[C@@H](C)O)C(C)C)[C@@H](C)O)C(=O)O [Peptide 1419.25]")
2850
>>> numeric_value("CC(C)[C@H](NC(=O)[C@@H]1CCCN1C(=O)[C@@H](NC(=O)[C@H](C)NC(=O)CNC(=O)[C@@H](NC(=O)[C@H](CS)NC(=O)CNC(=O)[C@@H](NC(=O)[C@@H](N)CO)C(C)C)[C@@H](C)O)C(C)C)C(=O)O [Peptide 1418.35]")
552

Query block: If you can, please state the reported IC50 value of CSCC[C@H](NC(=O)[C@H](CC(=O)O)NC(=O)[C@H](CC(N)=O)NC(=O)[C@H](CO)NC(=O)[C@H](CC(C)C)NC(=O)[C@H](CC(C)C)NC(=O)[C@@H](N)Cc1c[nH]cn1)C(=O)N[C@@H](CS)C(=O)N[C@H](C(=O)O)C(C)C [Peptide 1418.20] .
Result block: 176

Query block: If you can, please state the reported IC50 value of CC(C)C[C@H](NC(=O)[C@H](C)N)C(=O)N[C@@H](CO)C(=O)N[C@H](C(=O)NCC(=O)N[C@@H](CS)C(=O)N[C@H](C(=O)NCC(=O)N[C@H](C(=O)O)C(C)C)[C@@H](C)O)C(C)C [Peptide 1418.15] .
Result block: 264

Query block: If you can, please state the reported IC50 value of CSCC[C@H](NC(=O)[C@H](CC(=O)O)NC(=O)[C@H](CC(N)=O)NC(=O)[C@H](CO)NC(=O)[C@H](CC(C)C)NC(=O)[C@H](CC(C)C)NC(=O)[C@@H](N)Cc1c[nH]cn1)C(=O)N[C@@H](CS)C(=O)N[C@@H](C)C(=O)N[C@@H](CCCNC(=N)N)C(=O)N[C@H](C(=O)O)C(C)C [Peptide 1418.67] .
Result block: 37

Query block: If you can, please state the reported IC50 value of CC[C@H](C)[C@H](NC(=O)[C@H](Cc1c[nH]c2ccccc12)NC(=O)[C@@H](NC(=O)[C@@H](NC(=O)[C@H](CO)NC(=O)[C@H](CC(C)C)NC(=O)[C@@H](N)[C@@H](C)O)C(C)C)[C@@H](C)O)C(=O)NCC(=O)N[C@H](C(=O)O)C(C)C [Peptide 60.0217] .
Result block: 712

----------
measured-on: HLA-A*0206 (Homo sapiens, UniProt P04439, D140Y/D185E/D98H/E176V/E277Q/F33Y/G131W/G231S/I119V/I121R/I166T/I218V/L300P/L318F/N151K/N90K/P208A/P217A/Q86G/Q94H/R138H/R169H/T345S)
method: HLA class I binding assay, purified HLA, inhibition of 125I-labelled probe peptide
experimental-parameters: A*[…], A2 supermotif cross-reactive binding data
# maps each entry to its pIC50
Interpret pIC50 as the negative base-10 log of the concentration measured in mol/L.

>>> numeric_value("CC(C)C[C@H](NC(=O)[C@@H](NC(=O)[C@H](CO)NC(=O)[C@H](CCCNC(=N)N)NC(=O)[C@H](CC(=O)O)NC(=O)[C@H](CC(C)C)NC(=O)[C@H](Cc1c[nH]c2ccccc12)NC(=O)[C@H](Cc1ccccc1)NC(=O)[C@H](Cc1ccccc1)NC(=O)[C@H](CC(C)C)NC(=O)[C@@H](N)CC(C)C)C(C)C)C(=O)O [Peptide 63.0139]")
6.09

Below: the item to evaluate.
Query block: If you can, please state the reported pIC50 value of CC[C@H](C)[C@H](NC(=O)[C@H](CC(=O)O)NC(=O)[C@H](Cc1ccccc1)NC(=O)[C@@H](NC(=O)[C@H](C)N)[C@@H](C)O)C(=O)N[C@@H](CCC(=O)O)C(=O)N[C@@H](CO)C(=O)N[C@@H](CCCCN)C(=O)N[C@H](C(=O)O)C(C)C [Peptide 1418.30] .
Result block: 7.09

----------
# maps each entry to its pIC50
measured-on: HLA-A*0202 (Homo sapiens, UniProt P04439, D140Y/D185E/D98H/E176V/E277Q/G131W/G231S/I119L/I121R/I166T/I218V/L180W/L300P/L318F/N151K/N90K/P208A/P217A/Q67R/Q86G/Q94H/R138H/R169H/T345S)
method: HLA class I binding assay, purified HLA, inhibition of 125I-labelled probe peptide
experimental-parameters: A2 supermotif cross-reactive binding data
Interpret pIC50 as the negative base-10 log of the concentration measured in mol/L.

>>> numeric_value("CC(C)C[C@H](NC(=O)[C@@H](N)Cc1ccccc1)C(=O)N[C@@H](CC(N)=O)C(=O)N[C@@H](CCC(=O)O)C(=O)N[C@@H](CO)C(=O)N[C@@H](Cc1ccc(O)cc1)C(=O)N[C@@H](CCCCN)C(=O)N[C@@H](Cc1c[nH]cn1)C(=O)N[C@@H](CCC(=O)O)C(=O)N[C@@H](CCC(N)=O)C(=O)N[C@H](C(=O)O)C(C)C [Peptide 1419.55]")
8.85

Query block: If you can, please state the reported pIC50 value of CC(C)C[C@H](NC(=O)[C@H](CC(C)C)NC(=O)[C@H](Cc1ccccc1)NC(=O)[C@H](CC(C)C)NC(=O)[C@@H](N)Cc1ccccc1)C(=O)N[C@@H](Cc1ccccc1)C(=O)N[C@@H](Cc1ccccc1)C(=O)N[C@@H](Cc1c[nH]c2ccccc12)C(=O)N[C@H](C(=O)O)C(C)C [Peptide 60.0203] .
Result block: 6.51

Query block: If you can, please state the reported pIC50 value of CC(C)C[C@H](NC(=O)[C@H](CO)NC(=O)[C@@H](NC(=O)[C@H](CS)NC(=O)[C@H](CCC(N)=O)NC(=O)[C@H](CC(C)C)NC(=O)[C@@H](N)CO)C(C)C)C(=O)N[C@@H](Cc1c[nH]cn1)C(=O)N[C@@H](CC(C)C)C(=O)N[C@H](C(=O)O)C(C)C [Peptide 1418.52] .
Result block: 8.20

Query block: If you can, please state the reported pIC50 value of CC[C@H](C)[C@H](NC(=O)[C@@H]1CCCN1C(=O)[C@H](CCC(N)=O)NC(=O)[C@H](Cc1c[nH]c2ccccc12)NC(=O)[C@H](CC(C)C)NC(=O)[C@H](CC(C)C)NC(=O)[C@H](CC(C)C)NC(=O)[C@@H]1CCCN1)C(=O)N1CCC[C@H]1C(=O)N[C@H](C(=O)O)C(C)C [Peptide 63.0042] .
Result block: 7.33

Query block: If you can, please state the reported pIC50 value of CC(C)C[C@H](NC(=O)[C@H](CO)NC(=O)[C@H](C)NC(=O)[C@H](C)NC(=O)[C@H](CCCNC(=N)N)NC(=O)[C@H](C)NC(=O)[C@H](CC(C)C)NC(=O)[C@@H](N)CC(C)C)C(=O)N[C@@H](CO)C(=O)N[C@H](C(=O)O)C(C)C [Peptide 63.0031] .
Result block: 8.00

Query block: If you can, please state the reported pIC50 value of CC(C)C[C@H](NC(=O)[C@H](CC(C)C)NC(=O)[C@@H](N)CO)C(=O)N[C@@H](C)C(=O)N[C@@H](CCCCN)C(=O)N[C@@H](CCC(=O)O)C(=O)N[C@@H](CC(C)C)C(=O)N[C@@H](CCCCN)C(=O)N[C@@H](Cc1ccccc1)C(=O)N[C@H](C(=O)O)C(C)C [Peptide 63.0033] .
Result block: 8.24

Query block: If you can, please state the reported pIC50 value of CC[C@H](C)[C@H](NC(=O)[C@H](CO)NC(=O)[C@@H](NC(=O)CN)C(C)C)C(=O)N[C@@H](Cc1c[nH]c2ccccc12)C(=O)N[C@@H](CC(N)=O)C(=O)N1CCC[C@H]1C(=O)N[C@H](C(=O)N[C@H](C(=O)O)C(C)C)[C@@H](C)CC [Peptide 60.0207] .
Result block: 6.57

Query block: If you can, please state the reported pIC50 value of CC(C)C[C@H](NC(=O)[C@H](Cc1c[nH]c2ccccc12)NC(=O)[C@H](Cc1ccccc1)NC(=O)[C@H](Cc1ccccc1)NC(=O)[C@H](CC(C)C)NC(=O)[C@H](CC(C)C)NC(=O)[C@@H](N)Cc1ccccc1)C(=O)N[C@@H](CC(=O)O)C(=O)N[C@@H](CCCNC(=N)N)C(=O)N[C@@H](CO)C(=O)N[C@H](C(=O)O)C(C)C [Peptide 63.0138] .
Result block: 7.77

Query block: If you can, please state the reported pIC50 value of CC(C)C[C@H](NC(=O)[C@H](CC(C)C)NC(=O)[C@H](Cc1c[nH]cn1)NC(=O)[C@H](CC(C)C)NC(=O)[C@H](CO)NC(=O)[C@@H](NC(=O)[C@H](CS)NC(=O)[C@H](CCC(N)=O)NC(=O)[C@H](CC(C)C)NC(=O)[C@@H](N)CO)C(C)C)C(=O)O [Peptide 1419.66] .
Result block: 8.31

Query block: If you can, please state the reported pIC50 value of CSCC[C@H](NC(=O)[C@H](Cc1ccccc1)NC(=O)[C@H](CCCCN)NC(=O)[C@@H](NC(=O)[C@@H](NC(=O)[C@@H](N)CCCCN)C(C)C)[C@@H](C)O)C(=O)N[C@@H](CC(C)C)C(=O)N[C@@H](CS)C(=O)N[C@H](C(=O)O)C(C)C [Peptide 60.0220] .
Result block: 6.29

Values from patent US20040037843A1
